experiment: qHTS assay for identifying genotoxic compounds that show differential cytotoxicity against isogenic chicken DT40 cell lines with known DNA damage response pathways - Rad54/Ku70 mutant cell line (AID 743015); conditions: DT40 Rad54/Ku70 mutant viability, CellTiter-Glo, 40 h; series mostly up to 66.8 µM; note: nearly all actives have a fitted effect of over 60% in size
Records with an inconclusive call do not appear. Calls of active or inactive are those of the source. Calls come from the whole dose curve; as a rule, active = well fitted cell-killing curve with a large enough effect in the repeat runs; inconclusive = weak or mixed curves; inactive = no such curve, though single readings can be large or run the other way.
The categories you may choose from are yes (active), no (inactive)

ClCCOCCOCCCl :: no

Recorded test call requested for CCCCCCCCO[C@@H]1O[C@H](CO)[C@@H](O)[C@H](O)[C@H]1O
no

Recorded test call requested for CCC(C)O (stereo not drawn)
no

Recorded test call requested for CCCCC(CC)COC(=O)COc1ccc(Cl)cc1Cl (stereo not drawn)
no

Recorded test call requested for CCCCCCCN
no

Recorded test call requested for CCCCC
no

Recorded test call requested for O=C(O)c1ccccc1Cl
no

Recorded test call requested for NCc1ccccc1Sc1ccccc1CO
yes

Recorded test call requested for O=C(O)CC(=O)C(=O)O
no

Recorded test call requested for COc1ccc(C(=O)Nc2nc3ccccc3c(NCc3ccccc3)c2C#N)cc1
yes

----------
target: Voltage-gated inwardly rectifying potassium channel KCNH2 (Homo sapiens) (UniProt Q12809); experiment: Human Ether-a-go-go-Related Gene (hERG) channel small molecule antagonists: fluorescence cell-based qHTS assay (AID 1671200); details: hERG-U2OS cells, FluxOR thallium flux fluorescence; series mostly up to 76.8 µM; note: nearly all actives have a fitted effect of over 50% in size
Sequence (Q12809 whole entry, looked up): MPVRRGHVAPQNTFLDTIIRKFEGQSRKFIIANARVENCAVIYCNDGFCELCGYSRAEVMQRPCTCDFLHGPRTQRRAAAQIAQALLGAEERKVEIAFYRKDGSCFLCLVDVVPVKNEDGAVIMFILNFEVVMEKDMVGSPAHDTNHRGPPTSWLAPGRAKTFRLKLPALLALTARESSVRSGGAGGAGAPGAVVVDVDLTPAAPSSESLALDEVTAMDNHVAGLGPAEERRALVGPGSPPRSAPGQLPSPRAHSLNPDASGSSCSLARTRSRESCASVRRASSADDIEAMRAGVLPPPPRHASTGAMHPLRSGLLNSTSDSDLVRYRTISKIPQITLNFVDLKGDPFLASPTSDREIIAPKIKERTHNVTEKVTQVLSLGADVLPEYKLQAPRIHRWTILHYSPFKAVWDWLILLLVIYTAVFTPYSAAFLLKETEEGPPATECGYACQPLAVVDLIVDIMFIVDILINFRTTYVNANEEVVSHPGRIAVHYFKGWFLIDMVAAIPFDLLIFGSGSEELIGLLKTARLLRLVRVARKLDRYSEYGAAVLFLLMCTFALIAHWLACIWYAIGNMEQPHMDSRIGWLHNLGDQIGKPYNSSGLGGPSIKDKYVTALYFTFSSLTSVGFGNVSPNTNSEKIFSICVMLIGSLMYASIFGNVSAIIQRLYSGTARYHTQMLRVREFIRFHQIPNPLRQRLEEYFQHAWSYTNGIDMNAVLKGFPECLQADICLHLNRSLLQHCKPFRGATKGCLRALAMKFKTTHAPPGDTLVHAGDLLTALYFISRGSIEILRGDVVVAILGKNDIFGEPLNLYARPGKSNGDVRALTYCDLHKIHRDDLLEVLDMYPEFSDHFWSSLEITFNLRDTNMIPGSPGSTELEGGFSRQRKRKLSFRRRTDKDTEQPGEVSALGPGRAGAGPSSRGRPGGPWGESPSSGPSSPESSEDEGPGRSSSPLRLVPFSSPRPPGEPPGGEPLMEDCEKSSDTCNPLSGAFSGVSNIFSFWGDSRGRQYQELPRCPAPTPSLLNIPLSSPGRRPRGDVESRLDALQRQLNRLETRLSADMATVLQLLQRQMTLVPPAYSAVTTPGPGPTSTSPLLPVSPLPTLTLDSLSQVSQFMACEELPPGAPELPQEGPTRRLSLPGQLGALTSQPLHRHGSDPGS
Inconclusive results are not listed. Calls of active or inactive are those of the source. The call rests on the fitted dose curve; in most records, active means well fitted inhibition curve with a large enough effect in the repeat runs; inconclusive means weak or mixed curves; inactive means flat fitted curve, though single readings scatter.
The categories you may choose from are true (active), false (inactive)

Recorded test call requested for CN(C)CCN(Cc1ccc(Cl)cc1)c1ccccn1
true

Recorded test call requested for CC(=O)[O][Al]
false

Recorded test call requested for CCOc1ccc(O)cc1
false

Recorded test call requested for CCCCCCCCCCCCCCCCCCOS(=O)(=O)O
false

Recorded test call requested for CC(C)OC(=O)C(C)N(C(=O)c1ccccc1)c1ccc(F)c(Cl)c1 (stereo not drawn)
false

Recorded test call requested for COc1cccc(N(C)C(=S)Oc2ccc3c(c2)CCCC3)n1
false

Recorded test call requested for O=C1OC(CN2CCOCC2)CN1/N=C/c1ccc([N+](=O)[O-])o1 (stereo not drawn)
false

Recorded test call requested for COc1ccc(C(=O)c2ccc(OC)cc2O)c(O)c1
false

Recorded test call requested for CC1CCC(=O)C1=O (stereo not drawn)
false

Recorded test call requested for CN1CCC(N(Cc2cccs2)c2ccccc2)CC1
true

Recorded test call requested for CCCCOC(=O)CCCCCCCC(=O)OCCCC
false

Recorded test call requested for Nc1cccc([N+](=O)[O-])c1
false

Recorded test call requested for CCCCC(CC)COC(=O)COc1ccc(Cl)cc1Cl (stereo not drawn)
false

----------
assay: qHTS assay to identify small molecule antagonists of the estrogen related receptor (ERR) signaling pathway - cell viability counter screen (AID 1224818); conditions: ERR reporter cell line viability counter screen; series mostly up to 46.1 µM;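 note: viability measured after 17.5 h of compound exposure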
Results filed as inconclusive are left out. Calls of active or inactive are those of the source. Calls follow the shape of the dose curve; as a rule, active = well fitted cell-killing curve with a large enough effect in the repeat runs; inconclusive = weak or mixed curves; inactive = flat fitted curve, though single readings scatter.
MEASUREMENT_TYPE: outcome

Clc1ccc(Cn2c(CN3CCCC3)nc3ccccc32)cc1 :: inactive
COc1cc2nc(N(C)CCCNC(=O)C3CCCO3)nc(N)c2cc1OC (centres undefined) :: inactive
CC(=O)c1ccc2c(c1)N(CCCN(C)C)c1ccccc1S2 :: inactive
CCOC(=O)C1=C[C@]2(CC)CCCN3CCc4c(n1c1ccccc41)[C@@H]32 :: inactive
c1ccc(-c2ccccn2)nc1 :: inactive
CNCCCN1c2ccccc2CCc2ccccc21 :: inactive
CCCNCC(O)COc1ccccc1C(=O)CCc1ccccc1 (centres undefined) :: inactive
NC(N)=NCCC[C@H](N)C(=O)O :: inactive

# lookup: outcome of C#CCN(C)CCCOc1ccc(Cl)cc1Cl
inactive

These data points were gathered from PubChem BioAssay (Tox21).
